Tested on: HIV-1JR-FL
ASSAY INFO: Viral infection assay, recombinant HIV-1 pseudotyped with JR-FL Env (wild type and mutants), Cf2Th-CD4/CCR5 cells
Format: cell-based
RUN PARAMETERS: JR-FL Env W112A; read-out: IC50
PROPERTY MEASURED: IC50 (nM)
Numbers only; they are read as nM.

Task: Under HIV-1JR-FL: report IC50 of O=C(N/N=C/c1ccc(O)cc1)Nc1cccc2nsnc12 [Compound 18A] .
Result: 2800

* * *

Test system: HIV-1YU2
ASSAY INFO: Viral infection assay, YU2 Env (wild type and mutants)
Format: cell-based
RUN PARAMETERS: YU2 Env P212A
PROPERTY MEASURED: IC50 (µM)
Note: unit µM is implicit; provide only the numeric part.

Task: Determine its reported IC50: O=C(N/N=C/c1ccc(O)cc1)Nc1cccc2nsnc12 [Compound 18A]
Result: 10.2

* * *

Test system: HIV-1JR-FL
ASSAY INFO: Viral infection assay, recombinant HIV-1 pseudotyped with JR-FL Env (wild type and mutants), Cf2Th-CD4/CCR5 cells
Assay type: cell-based
RUN PARAMETERS: JR-FL Env double mutant N187A + N188A; read-out: IC50
PROPERTY MEASURED: IC50 (nM)
Please respond with the number in nM and leave the unit unwritten.

Task: Determine its reported IC50: O=C(N/N=C/c1ccc(O)cc1)Nc1cccc2nsnc12 [Compound 18A]
Result: 2500

* * *

System: HIV-1YU2
ASSAY INFO: Viral infection assay, YU2 Env (wild type and mutants)
Type: cell-based
RUN PARAMETERS: YU2 Env I420S
Protocol: HIV-1 Env mutants. Mutations were introduced into the plasmid expressing the fulllength HIV-1YU2 or HIV-1JR-FL Envs using the QuikChange II site-directed mutagenesis protocol or the QuikChange multi site-directed mutagenesis kit (Stratagene). […] Viral infection assay. […] The activity of the firefly luciferase, which was used as a reporter protein in the system, was measured with a Centro LB 960 luminometer (Berthold Technologies, Oak Ridge, Tenn.). […]
PROPERTY MEASURED: IC50 (µM)
Please reply with the bare figure in µM and do not write the unit itself.

Task: Tell me measured IC50 for O=C(N/N=C/c1ccc(O)cc1)Nc1cccc2nsnc12 [Compound 18A] please.
Result: 4.8

* * *

Test system: Cf2Th-CD4/CCR5 cells
ASSAY INFO: Viability assay (CellTiterGlo), CD4/CCR5-expressing target cells
Assay type: cell-based
RUN PARAMETERS: read-out: half-maximal cytotoxic concentration (CC50)
PROPERTY MEASURED: CC50
# output: number + unit

Task: // output CC50; input O=C(N/N=C/c1ccc(O)cc1)Nc1cccc2nsnc12 [Compound 18A] ; system Cf2Th-CD4/CCR5 cells
Result: 44 µM

* * *

Tested on: Cf2Th-CD4/CXCR4 cells
ASSAY INFO: Viability assay (CellTiterGlo), CD4/CXCR4-expressing target cells
Assay type: cell-based
PROPERTY MEASURED: CC50 (µM)
State just the number; it will be interpreted in µM.

Task: Please list CC50 recorded for the molecule O=C(N/N=C/c1ccc(O)cc1)Nc1cccc2nsnc12 [Compound 18A]
Result: 63

* * *

Tested on: HIV-1YU2
ASSAY INFO: Viral infection assay, YU2 Env (wild type and mutants)
Format: cell-based
RUN PARAMETERS: YU2 Env W69L
PROPERTY MEASURED: IC50 (µM)
Please reply with the bare figure in µM and do not write the unit itself.

Task: Note IC50 for the compound shown: O=C(N/N=C/c1ccc(O)cc1)Nc1cccc2nsnc12 [Compound 18A]
Result: 3.5
